src = paper PMC11859928

Test system: PC-3
Assay: NCI one-dose assay
Type: cell-based
Conditions: Homo sapiens, PC-3, Prostate cancer, read-out: Cell growth inhibition %
inhibition at 10 µM below 40% gives not satisfied; inhibition at 10 µM at or above it gives satisfied.

Examples with answers:
- molecule: "O/N=C(\\CSc1nnc(-c2c[nH]c3ccccc23)n1-c1ccccc1)c1ccccc1 [Compound 7f]"
  discreteLabel: "satisfied"
- molecule: "C=CCn1c(SCC(=O)c2ccc(C)cc2)nnc1-c1c[nH]c2ccccc12 [Compound 6c]"
  discreteLabel: "not satisfied"
- molecule: "O=C(CSc1nnc(-c2c[nH]c3ccccc23)n1-c1ccccc1)c1ccc(Br)cc1 [Compound 6i]"
  discreteLabel: "satisfied"

Check the entry C=CCn1c(SC/C(=N\O)c2ccc(Cl)cc2)nnc1-c1c[nH]c2ccccc12 [Compound 7e] : does inhibition at 10 µM equal or exceed 40%? not satisfied

Check the entry C=CCn1c(SC/C(=N\O)c2ccccc2)nnc1-c1c[nH]c2ccccc12 [Compound 7a] : does inhibition at 10 µM equal or exceed 40%? not satisfied

Check the entry Cc1ccc(/C(CSc2nnc(-c3c[nH]c4ccccc34)n2-c2ccccc2)=N/O)cc1 [Compound 7h] : does inhibition at 10 µM equal or exceed 40%? satisfied

Check the entry C=CCn1c(SCC(=O)c2ccccc2)nnc1-c1c[nH]c2ccccc12 [Compound 6a] : does inhibition at 10 µM equal or exceed 40%? not satisfied

---

System: SN12C
Experiment: NCI one-dose assay
Type: cell-based
Settings: Homo sapiens, Renal cancer, read-out: Cell growth inhibition %
metric: inhibition at 10 µM (%)
Number only, in %; omit the unit.

- smilesRepresentation: "C=CCn1c(SCC(=O)c2ccc(Br)cc2)nnc1-c1c[nH]c2ccccc12"
  inhibition at 10 µM [%]: 4.39
- smilesRepresentation: "C=CCn1c(SC/C(=N\\O)c2ccc(Cl)cc2)nnc1-c1c[nH]c2ccccc12"
  inhibition at 10 µM [%]: 14.9
- smilesRepresentation: "C=CCn1c(SCC(=O)c2ccc(Cl)cc2)nnc1-c1c[nH]c2ccccc12"
  inhibition at 10 µM [%]: 4.38
- smilesRepresentation: "COc1ccc(C(=O)CSc2nnc(-c3c[nH]c4ccccc34)n2-c2ccccc2)cc1"
  inhibition at 10 µM [%]: 55.6
- smilesRepresentation: "O=C(CSc1nnc(-c2c[nH]c3ccccc23)n1-c1ccccc1)c1ccccc1"
  inhibition at 10 µM [%]: 55.3

Entry `C=CCn1c(SCC(=O)c2ccccc2)nnc1-c1c[nH]c2ccccc12` — recorded inhibition at 10 µM = 7.27

Entry `C=CCn1c(SCC(=O)c2ccc(OC)cc2)nnc1-c1c[nH]c2ccccc12` — recorded inhibition at 10 µM = 3.73

Entry `O/N=C(\CSc1nnc(-c2c[nH]c3ccccc23)n1-c1ccccc1)c1ccc(Cl)cc1` — recorded inhibition at 10 µM = 116

---

Tested on: LOX IMVI
Assay: NCI one-dose assay
Assay type: cell-based
Conditions: Homo sapiens, Melanoma, read-out: Cell growth inhibition %
metric: inhibition at 10 µM

Consider the reported inhibition at 10 µM for these molecules:
- smilesRepresentation: "O=C(CSc1nnc(-c2c[nH]c3ccccc23)n1-c1ccccc1)c1ccc(Br)cc1"
  inhibition at 10 µM: "58.2%"
- smilesRepresentation: "Cc1ccc(C(=O)CSc2nnc(-c3c[nH]c4ccccc34)n2-c2ccccc2)cc1"
  inhibition at 10 µM: "120%"
- smilesRepresentation: "COc1ccc(C(=O)CSc2nnc(-c3c[nH]c4ccccc34)n2-c2ccccc2)cc1"
  inhibition at 10 µM: "56.5%"
- smilesRepresentation: "O/N=C(\\CSc1nnc(-c2c[nH]c3ccccc23)n1-c1ccccc1)c1ccc(Br)cc1"
  inhibition at 10 µM: "187%"
- smilesRepresentation: "O=C(CSc1nnc(-c2c[nH]c3ccccc23)n1-c1ccccc1)c1ccc(Cl)cc1"
  inhibition at 10 µM: "84.1%"
- smilesRepresentation: "O/N=C(\\CSc1nnc(-c2c[nH]c3ccccc23)n1-c1ccccc1)c1ccc(Cl)cc1"
  inhibition at 10 µM: "189%"
- smilesRepresentation: "O=C(CSc1nnc(-c2c[nH]c3ccccc23)n1-c1ccccc1)c1ccccc1"
  inhibition at 10 µM: "70.8%"
- smilesRepresentation: "COc1ccc(/C(CSc2nnc(-c3c[nH]c4ccccc34)n2-c2ccccc2)=N/O)cc1"
  inhibition at 10 µM: "178%"
- smilesRepresentation: "Cc1ccc(/C(CSc2nnc(-c3c[nH]c4ccccc34)n2-c2ccccc2)=N/O)cc1"
  inhibition at 10 µM: "188%"

# next molecule below
Entry `O/N=C(\CSc1nnc(-c2c[nH]c3ccccc23)n1-c1ccccc1)c1ccccc1` — recorded inhibition at 10 µM = 59%

---

Readings of inhibition at 10 µM for the listed compounds
Tested on: UO-31
Experiment: NCI one-dose assay
Format: cell-based, human
Conditions: Homo sapiens, UO-31, UO-31, Renal cancer, read-out: Cell growth inhibition %
Number only, in %; omit the unit.

Consider the reported inhibition at 10 µM for these compounds:
- smilesRepresentation: "COc1ccc(C(=O)CSc2nnc(-c3c[nH]c4ccccc34)n2-c2ccccc2)cc1"
  recordedMeasurement: 67.4
- smilesRepresentation: "C=CCn1c(SCC(=O)c2ccc(Br)cc2)nnc1-c1c[nH]c2ccccc12"
  recordedMeasurement: 31.6
- smilesRepresentation: "O=C(CSc1nnc(-c2c[nH]c3ccccc23)n1-c1ccccc1)c1ccccc1"
  recordedMeasurement: 44.5

Entry `C=CCn1c(SC/C(=N\O)c2ccc(Cl)cc2)nnc1-c1c[nH]c2ccccc12` — recorded inhibition at 10 µM = 39.5

Entry `C=CCn1c(SC/C(=N\O)c2ccc(C)cc2)nnc1-c1c[nH]c2ccccc12` — recorded inhibition at 10 µM = 35

Entry `Cc1ccc(C(=O)CSc2nnc(-c3c[nH]c4ccccc34)n2-c2ccccc2)cc1` — recorded inhibition at 10 µM = 69.7

Entry `C=CCn1c(SCC(=NO)c2ccc(OC)cc2)nnc1-c1c[nH]c2ccccc12` — recorded inhibition at 10 µM = 19.2

Entry `COc1ccc(/C(CSc2nnc(-c3c[nH]c4ccccc34)n2-c2ccccc2)=N/O)cc1` — recorded inhibition at 10 µM = 81.8

---

Tested on: SK-MEL-28
Test: NCI one-dose assay
Format: cell-based
Conditions: Homo sapiens, SK-MEL-28, Melanoma, read-out: Cell growth inhibition %
metric: inhibition at 10 µM (%)
Number only, in %; omit the unit.

Consider the reported inhibition at 10 µM for these molecules:
- molecule: "C=CCn1c(SCC(=O)c2ccccc2)nnc1-c1c[nH]c2ccccc12 [Compound 6a]"
  inhibition at 10 µM [%]: -5.22
- molecule: "O=C(CSc1nnc(-c2c[nH]c3ccccc23)n1-c1ccccc1)c1ccc(Br)cc1 [Compound 6i]"
  inhibition at 10 µM [%]: 65.1
- molecule: "C=CCn1c(SCC(=O)c2ccc(Br)cc2)nnc1-c1c[nH]c2ccccc12 [Compound 6d]"
  inhibition at 10 µM [%]: 3.9
- molecule: "C=CCn1c(SC/C(=N\\O)c2ccc(Cl)cc2)nnc1-c1c[nH]c2ccccc12 [Compound 7e]"
  inhibition at 10 µM [%]: 0.08

Bench note, SK-MEL-28: entry C=CCn1c(SCC(=NO)c2ccc(OC)cc2)nnc1-c1c[nH]c2ccccc12 [Compound 7b] , its inhibition at 10 µM = -3.89

Bench note, SK-MEL-28: entry C=CCn1c(SCC(=O)c2ccc(OC)cc2)nnc1-c1c[nH]c2ccccc12 [Compound 6b] , its inhibition at 10 µM = 1.56

Bench note, SK-MEL-28: entry O/N=C(\CSc1nnc(-c2c[nH]c3ccccc23)n1-c1ccccc1)c1ccccc1 [Compound 7f] , its inhibition at 10 µM = 45.5

Bench note, SK-MEL-28: entry O=C(CSc1nnc(-c2c[nH]c3ccccc23)n1-c1ccccc1)c1ccccc1 [Compound 6f] , its inhibition at 10 µM = 0.04

Bench note, SK-MEL-28: entry Cc1ccc(C(=O)CSc2nnc(-c3c[nH]c4ccccc34)n2-c2ccccc2)cc1 [Compound 6h] , its inhibition at 10 µM = 51

Bench note, SK-MEL-28: entry Cc1ccc(/C(CSc2nnc(-c3c[nH]c4ccccc34)n2-c2ccccc2)=N/O)cc1 [Compound 7h] , its inhibition at 10 µM = 37.5

---

Readings of IC50 for the listed molecules
Biological target: tubulin (Sus scrofa, UniProt P02550+P02554)
Construct: purchased Cytoskeleton Inc., Denver, CO, USA
Sequence (P02554 whole entry): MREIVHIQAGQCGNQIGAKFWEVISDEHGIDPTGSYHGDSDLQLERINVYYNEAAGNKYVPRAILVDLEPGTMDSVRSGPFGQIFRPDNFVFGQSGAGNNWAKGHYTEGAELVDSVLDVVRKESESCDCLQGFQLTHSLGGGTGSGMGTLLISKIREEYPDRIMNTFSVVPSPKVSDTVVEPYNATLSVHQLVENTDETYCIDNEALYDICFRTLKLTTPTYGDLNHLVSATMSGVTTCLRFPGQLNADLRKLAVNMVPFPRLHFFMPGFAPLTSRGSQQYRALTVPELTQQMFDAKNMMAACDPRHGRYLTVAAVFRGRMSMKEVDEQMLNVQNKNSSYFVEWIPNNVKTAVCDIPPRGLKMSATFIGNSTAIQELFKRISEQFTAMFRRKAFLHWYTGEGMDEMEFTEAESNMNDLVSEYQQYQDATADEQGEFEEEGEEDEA
Sequence (P02550 whole entry): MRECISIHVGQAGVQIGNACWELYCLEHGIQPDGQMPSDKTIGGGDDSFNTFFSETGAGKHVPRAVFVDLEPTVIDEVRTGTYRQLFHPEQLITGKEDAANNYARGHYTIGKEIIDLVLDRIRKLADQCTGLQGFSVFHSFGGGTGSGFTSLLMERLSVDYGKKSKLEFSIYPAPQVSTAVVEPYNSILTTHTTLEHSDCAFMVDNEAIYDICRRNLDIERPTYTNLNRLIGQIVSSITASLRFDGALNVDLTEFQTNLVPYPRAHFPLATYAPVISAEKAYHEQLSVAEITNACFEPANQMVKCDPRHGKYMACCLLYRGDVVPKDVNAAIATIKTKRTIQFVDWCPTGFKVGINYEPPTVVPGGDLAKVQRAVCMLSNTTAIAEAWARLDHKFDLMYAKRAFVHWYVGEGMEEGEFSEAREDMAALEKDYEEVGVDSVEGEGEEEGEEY
Assay: Tubulin polymerization inhibitory assay
Assay type: biochemical
Settings: read-out: Tubulin Inhibitory Effect, IC50
Text: The substances’ effects on tubulin polymerization were examined using the Tubulin Polymerization Assay Kit (Cytoskeleton Inc., Denver, CO, USA) according to the supplier’s instructions, with details described in Appendix A.. The activity of compounds on tubulin polymerization was investigated using the Tubulin Polymerization Assay Kit (Cytoskeleton Inc., Denver, CO, USA), which works via fluorescent reporter enhancement. […]
Please format your answer as a value with the unit trailing.

Consider the reported IC50 for these molecules:
- molecule: "O/N=C(\\CSc1nnc(-c2c[nH]c3ccccc23)n1-c1ccccc1)c1ccc(Cl)cc1 [Compound 7j]"
  metric: "IC50"
  recordedMeasurement: "6.26 µM"
- molecule: "Cc1ccc(/C(CSc2nnc(-c3c[nH]c4ccccc34)n2-c2ccccc2)=N/O)cc1 [Compound 7h]"
  metric: "IC50"
  recordedMeasurement: "18.4 µM"
- molecule: "O/N=C(\\CSc1nnc(-c2c[nH]c3ccccc23)n1-c1ccccc1)c1ccc(Br)cc1 [Compound 7i]"
  metric: "IC50"
  recordedMeasurement: "3.03 µM"

Entry Cc1ccc(C(=O)CSc2nnc(-c3c[nH]c4ccccc34)n2-c2ccccc2)cc1 [Compound 6h] — recorded IC50 = 9.5 µM
